- test.target: panel of 255 wild-type kinases (Homo sapiens, UniProt Q96L34)
- Sequence (Q96L34 whole entry): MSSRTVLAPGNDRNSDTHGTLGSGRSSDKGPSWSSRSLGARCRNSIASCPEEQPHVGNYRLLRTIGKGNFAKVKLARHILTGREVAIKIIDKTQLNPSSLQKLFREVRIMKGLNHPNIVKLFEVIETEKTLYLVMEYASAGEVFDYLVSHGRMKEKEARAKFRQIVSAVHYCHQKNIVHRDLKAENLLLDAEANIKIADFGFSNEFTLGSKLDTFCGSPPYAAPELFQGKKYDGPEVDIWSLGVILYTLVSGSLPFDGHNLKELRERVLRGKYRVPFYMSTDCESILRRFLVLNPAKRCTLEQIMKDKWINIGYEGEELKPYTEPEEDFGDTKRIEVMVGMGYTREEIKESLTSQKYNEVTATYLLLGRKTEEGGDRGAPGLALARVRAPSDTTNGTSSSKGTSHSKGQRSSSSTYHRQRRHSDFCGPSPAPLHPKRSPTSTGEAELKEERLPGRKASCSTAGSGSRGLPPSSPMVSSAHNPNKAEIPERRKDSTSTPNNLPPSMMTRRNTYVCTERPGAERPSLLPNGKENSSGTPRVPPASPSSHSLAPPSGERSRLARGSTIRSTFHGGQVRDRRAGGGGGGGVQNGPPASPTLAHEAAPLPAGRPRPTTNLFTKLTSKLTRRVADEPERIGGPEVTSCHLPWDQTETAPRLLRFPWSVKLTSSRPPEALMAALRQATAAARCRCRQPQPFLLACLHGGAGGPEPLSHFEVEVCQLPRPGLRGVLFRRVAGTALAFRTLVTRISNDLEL
- experiment.summary: Kinase panel profiling at 1 µmol/L (MSA or IMAP), percentage inhibition
- Type: biochemical
- experimental.conditions: MARK4; 1 µmol/L single concentration; read-out: %-inhibition, MARK4

| molecule | inhibition at 1 µM (%) |
| --- | --- |
| Cn1cnc2c(F)c(Nc3ccc(Br)cc3Cl)c(C(=O)NOCCO)cc21 [selumetinib] | -11 |
| CCN1C(=O)N(c2c(F)c(OC)cc(OC)c2F)Cc2cnc3[nH]c(CN4CCOCC4)cc3c21 [pemigatinib] | 52 |
| Cc1nc(NC(=O)N2CCC[C@H]2C(N)=O)sc1-c1ccnc(C(C)(C)C(F)(F)F)c1 [alpelisib] | 0.414 |
| Cn1cc(-c2cc3c(N4CCN(c5ncc([C@@](C)(N)c6ccc(F)cc6)cn5)CC4)ncnn3c2)cn1 [avapritinib] | -5.63 |
| COc1ccc(CN2C3CC2CN(c2ccc(-c4cc(OCC(C)(C)O)cn5ncc(C#N)c45)cn2)C3)cn1 [selpercatinib] | 25 |
| FC(F)(F)c1ccc(CNc2ccc(Cc3c[nH]c4ncc(Cl)cc34)cn2)cn1 [pexidartinib] | 17 |
| CN1CCN(c2ccc(C(=O)Nc3n[nH]c4ccc(Cc5cc(F)cc(F)c5)cc34)c(NC3CCOCC3)c2)CC1 [entrectinib] | 15 |
| COC(=O)N[C@@H](C)CNc1nccc(-c2cn(C(C)C)nc2-c2cc(Cl)cc(NS(C)(=O)=O)c2F)n1 [encorafenib] | 2.32 |

----------
- test.target: UniProtKB P51451
- Sequence (P51451 whole entry): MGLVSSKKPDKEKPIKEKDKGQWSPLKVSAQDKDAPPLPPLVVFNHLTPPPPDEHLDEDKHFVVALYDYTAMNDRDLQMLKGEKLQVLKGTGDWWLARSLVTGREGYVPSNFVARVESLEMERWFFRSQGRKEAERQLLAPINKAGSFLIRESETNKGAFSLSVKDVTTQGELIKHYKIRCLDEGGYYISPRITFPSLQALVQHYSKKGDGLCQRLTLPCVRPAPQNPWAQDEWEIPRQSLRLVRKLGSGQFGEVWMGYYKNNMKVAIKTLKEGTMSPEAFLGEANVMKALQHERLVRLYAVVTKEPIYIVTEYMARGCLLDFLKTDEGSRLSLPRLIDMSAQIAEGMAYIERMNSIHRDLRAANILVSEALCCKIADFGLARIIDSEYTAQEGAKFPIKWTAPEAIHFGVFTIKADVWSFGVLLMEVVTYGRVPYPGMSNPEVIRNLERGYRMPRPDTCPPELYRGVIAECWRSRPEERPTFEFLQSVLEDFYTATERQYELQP
- experiment.summary: Kinase panel profiling at 1 µmol/L (MSA or IMAP), percentage inhibition
- Assay type: biochemical
- experimental.conditions: BLK kinase assay; 1 µmol/L single concentration; read-out: %-inhibition BLK
Below, each entry is listed with its recorded inhibition at 1 µM.

| smiles.text | display.unit | inhibition at 1 µM |
| --- | --- | --- |
| COC(=O)N[C@@H](C)CNc1nccc(-c2cn(C(C)C)nc2-c2cc(Cl)cc(NS(C)(=O)=O)c2F)n1 | % | 10 |
| CCn1c(=O)c(-c2cc(NC(=O)Nc3ccccc3)c(F)cc2Br)cc2cnc(NC)cc21 | % | 26 |
| COc1ccc(CN2C3CC2CN(c2ccc(-c4cc(OCC(C)(C)O)cn5ncc(C#N)c45)cn2)C3)cn1 | % | 76 |
| COc1cc2ncnc(Nc3ccc(F)c(Cl)c3)c2cc1NC(=O)/C=C/CN1CCCCC1 | % | 77 |

----------
- test.target: panel of 255 wild-type kinases (Homo sapiens, UniProt Q92630)
- Sequence (Q92630 whole entry): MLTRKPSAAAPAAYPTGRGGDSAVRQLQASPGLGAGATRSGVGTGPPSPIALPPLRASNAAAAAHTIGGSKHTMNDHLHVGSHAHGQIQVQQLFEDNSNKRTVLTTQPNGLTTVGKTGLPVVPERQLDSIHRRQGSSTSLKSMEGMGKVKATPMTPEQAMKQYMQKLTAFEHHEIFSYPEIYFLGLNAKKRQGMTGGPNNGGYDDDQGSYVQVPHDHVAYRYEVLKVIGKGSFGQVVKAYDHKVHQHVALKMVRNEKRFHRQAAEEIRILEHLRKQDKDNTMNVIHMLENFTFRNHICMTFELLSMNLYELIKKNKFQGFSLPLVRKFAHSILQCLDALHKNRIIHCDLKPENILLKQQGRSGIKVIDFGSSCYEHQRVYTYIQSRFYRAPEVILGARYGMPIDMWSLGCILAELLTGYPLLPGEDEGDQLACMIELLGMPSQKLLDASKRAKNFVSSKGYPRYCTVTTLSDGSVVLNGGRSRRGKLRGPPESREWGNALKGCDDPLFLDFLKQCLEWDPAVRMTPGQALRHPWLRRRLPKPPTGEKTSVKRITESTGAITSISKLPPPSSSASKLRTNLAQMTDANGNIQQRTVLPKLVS
- experiment.summary: Kinase panel profiling at 1 µmol/L (MSA or IMAP), percentage inhibition
- Type: biochemical
- experimental.conditions: kinase DYRK2; 1 µmol/L single concentration; read-out: %-inhibition at 1 µmol/L, DYRK2

| compound | display.unit | inhibition at 1 µM |
| --- | --- | --- |
| FC(F)(F)c1ccc(CNc2ccc(Cc3c[nH]c4ncc(Cl)cc34)cn2)cn1 [pexidartinib] | % | 24 |
| CCN1CCN(c2ccc(Nc3cc(N(C)C(=O)Nc4c(Cl)c(OC)cc(OC)c4Cl)ncn3)cc2)CC1 [infigratinib] | % | -3.43 |
| Cc1nc(NC(=O)N2CCC[C@H]2C(N)=O)sc1-c1ccnc(C(C)(C)C(F)(F)F)c1 [alpelisib] | % | 7 |
| Cc1cc(Nc2ncnc3ccc(NC4=NC(C)(C)CO4)cc23)ccc1Oc1ccn2ncnc2c1 [tucatinib] | % | 8.45 |

----------
- test.target: panel of 255 wild-type kinases (Homo sapiens)
- experiment.summary: Kinase panel profiling at 1 µmol/L (MSA or IMAP), percentage inhibition
- Format: biochemical
- experimental.conditions: kinase PKCγ; 1 µmol/L single concentration; read-out: %-inhibition at 1 µmol/L, PKCγ
quantity.measured: inhibition at 1 µM (%)

| smiles.text | test.target | test.value |
| --- | --- | --- |
| CO[C@]1(C(=O)N[C@@H](C)c2ccc(-n3cc(F)cn3)nc2)CC[C@H](c2nc(C)cc(Nc3cc(C)[nH]n3)n2)CC1 | panel of 255 wild-type kinases (Homo sapiens) | 1.41 |
| COC(=O)N[C@@H](C)CNc1nccc(-c2cn(C(C)C)nc2-c2cc(Cl)cc(NS(C)(=O)=O)c2F)n1 | panel of 255 wild-type kinases (Homo sapiens) | 4 |
| Cn1cc(-c2cc3c(N4CCN(c5ncc([C@@](C)(N)c6ccc(F)cc6)cn5)CC4)ncnn3c2)cn1 | panel of 255 wild-type kinases (Homo sapiens) | -2.11 |
| CCN1C(=O)N(c2c(F)c(OC)cc(OC)c2F)Cc2cnc3[nH]c(CN4CCOCC4)cc3c21 | panel of 255 wild-type kinases (Homo sapiens) | -0.948 |
| C[C@H](Nc1ncnc2nc[nH]c12)c1cc2cccc(Cl)c2c(=O)n1-c1ccccc1 | panel of 255 wild-type kinases (Homo sapiens) | -4.38 |
| C[C@H]1Oc2cc(cnc2N)-c2c(nn(C)c2C#N)CN(C)C(=O)c2ccc(F)cc21 | panel of 255 wild-type kinases (Homo sapiens) | -3.74 |
| FC(F)(F)c1ccc(CNc2ccc(Cc3c[nH]c4ncc(Cl)cc34)cn2)cn1 | panel of 255 wild-type kinases (Homo sapiens) | 4.68 |
| O=C(Nc1cnn2ccc(N3CCC[C@@H]3c3cc(F)ccc3F)nc12)N1CC[C@H](O)C1 | panel of 255 wild-type kinases (Homo sapiens) | -1.62 |
| Cc1cc(Nc2ncnc3ccc(NC4=NC(C)(C)CO4)cc23)ccc1Oc1ccn2ncnc2c1 | panel of 255 wild-type kinases (Homo sapiens) | -1.73 |
| COc1ccc(CN2C3CC2CN(c2ccc(-c4cc(OCC(C)(C)O)cn5ncc(C#N)c45)cn2)C3)cn1 | panel of 255 wild-type kinases (Homo sapiens) | -0.427 |
| CCn1c(=O)c(-c2cc(NC(=O)Nc3ccccc3)c(F)cc2Br)cc2cnc(NC)cc21 | panel of 255 wild-type kinases (Homo sapiens) | 0.0973 |
| CN1CCN(c2ccc(C(=O)Nc3n[nH]c4ccc(Cc5cc(F)cc(F)c5)cc34)c(NC3CCOCC3)c2)CC1 | panel of 255 wild-type kinases (Homo sapiens) | 1 |
| CCc1nc(C(N)=O)c(Nc2ccc(N3CCC(N4CCN(C)CC4)CC3)c(OC)c2)nc1NC1CCOCC1 | panel of 255 wild-type kinases (Homo sapiens) | 19 |
| Cn1cnc2c(F)c(Nc3ccc(Br)cc3F)c(C(=O)NOCCO)cc21 | panel of 255 wild-type kinases (Homo sapiens) | 0.893 |
| COc1cc2ncnc(Nc3ccc(F)c(Cl)c3)c2cc1NC(=O)/C=C/CN1CCCCC1 | panel of 255 wild-type kinases (Homo sapiens) | 4 |

----------
List of inhibition at 1 µM values.
- test.target: panel of 255 wild-type kinases (Homo sapiens)
- experiment.summary: Kinase panel profiling at 1 µmol/L (MSA or IMAP), percentage inhibition
- Type: biochemical
- experimental.conditions: kinase IGF1R; 1 µmol/L single concentration; read-out: %-inhibition at 1 µmol/L, IGF1R
quantity.measured: inhibition at 1 µM (%)

| smiles.text | quantity.measured | test.value |
| --- | --- | --- |
| Cn1cnc2c(F)c(Nc3ccc(Br)cc3F)c(C(=O)NOCCO)cc21 | inhibition at 1 µM | 4.47 |
| COC(=O)N[C@@H](C)CNc1nccc(-c2cn(C(C)C)nc2-c2cc(Cl)cc(NS(C)(=O)=O)c2F)n1 | inhibition at 1 µM | 6.61 |
| C[C@H]1Oc2cc(cnc2N)-c2c(nn(C)c2C#N)CN(C)C(=O)c2ccc(F)cc21 | inhibition at 1 µM | 79 |
| CCn1c(=O)c(-c2cc(NC(=O)Nc3ccccc3)c(F)cc2Br)cc2cnc(NC)cc21 | inhibition at 1 µM | 3.34 |
| FC(F)(F)c1ccc(CNc2ccc(Cc3c[nH]c4ncc(Cl)cc34)cn2)cn1 | inhibition at 1 µM | 17 |
| Cn1cc(-c2cc3c(N4CCN(c5ncc([C@@](C)(N)c6ccc(F)cc6)cn5)CC4)ncnn3c2)cn1 | inhibition at 1 µM | 3.41 |
| COc1ccc(CN2C3CC2CN(c2ccc(-c4cc(OCC(C)(C)O)cn5ncc(C#N)c45)cn2)C3)cn1 | inhibition at 1 µM | 3 |
| CCc1nc(C(N)=O)c(Nc2ccc(N3CCC(N4CCN(C)CC4)CC3)c(OC)c2)nc1NC1CCOCC1 | inhibition at 1 µM | 99 |
| C[C@H](Nc1ncnc2nc[nH]c12)c1cc2cccc(Cl)c2c(=O)n1-c1ccccc1 | inhibition at 1 µM | 1.51 |
| CO[C@]1(C(=O)N[C@@H](C)c2ccc(-n3cc(F)cn3)nc2)CC[C@H](c2nc(C)cc(Nc3cc(C)[nH]n3)n2)CC1 | inhibition at 1 µM | 10 |
| Cc1cc(Nc2ncnc3ccc(NC4=NC(C)(C)CO4)cc23)ccc1Oc1ccn2ncnc2c1 | inhibition at 1 µM | 2.31 |
| Cn1cnc2c(F)c(Nc3ccc(Br)cc3Cl)c(C(=O)NOCCO)cc21 | inhibition at 1 µM | 5.57 |
| Cc1nc(NC(=O)N2CCC[C@H]2C(N)=O)sc1-c1ccnc(C(C)(C)C(F)(F)F)c1 | inhibition at 1 µM | -0.261 |
| CCN1C(=O)N(c2c(F)c(OC)cc(OC)c2F)Cc2cnc3[nH]c(CN4CCOCC4)cc3c21 | inhibition at 1 µM | 7 |
| COc1cc2ncnc(Nc3ccc(F)c(Cl)c3)c2cc1NC(=O)/C=C/CN1CCCCC1 | inhibition at 1 µM | 3.29 |
| CN1CCN(c2ccc(C(=O)Nc3n[nH]c4ccc(Cc5cc(F)cc(F)c5)cc34)c(NC3CCOCC3)c2)CC1 | inhibition at 1 µM | 98 |
